biological target: HTRA1, Q92743; test: holdup assay; parameters: key: below the threshold = too weak to quantify, mostly under pKd 3.1 to 4; conditions: plain residues with an end cap or a label only (N-terminal biotin on a linker: ado-ado)
Sequence (Q92743 360-477): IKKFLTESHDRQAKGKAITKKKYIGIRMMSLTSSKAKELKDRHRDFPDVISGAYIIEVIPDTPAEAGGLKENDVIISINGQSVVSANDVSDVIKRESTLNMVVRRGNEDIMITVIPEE
observedProperty: pKd

Some binders with known pKd results, for comparison:
> print(dat)
                         binder               result
1    VKPQVSESKL [ACOT8, O14734]  below the threshold
2    QMNQTLPVQV [EPHB3, P54753]                 4.11
3  QGPVETESVV [SLC45A4, Q5BKX6]                 4.55
4    DDPSTAETVL [ABCA7, Q8IZY2]                 4.64
5     SARSRLSSNL [HCN2, Q9UL51]  below the threshold
6    EVEEFPETSV [TRPV3, Q8NET8]                 4.16
7   QSARLWETSI [ADAM22, Q9P0K1]                 3.92
8    PPYRHRNTVV [ERBB4, Q15303]                 4.13

Entry under test: QKNRKAQEDL [CES3, Q6UWW8] . Its pKd was below the threshold

Entry under test: SGSLKLMTTV [DACT1, Q9NYF0] . Its pKd was 4.04

Entry under test: PAPSSGKDYV [CLDN1, O95832] . Its pKd was 3.94

Entry under test: EALLQMESVA [CAVIN3, Q969G5] . Its pKd was 3.93

Entry under test: EKKTLIGIKL [GOT1L1, Q8NHS2] . Its pKd was 4.48

Entry under test: LPHPHSTTRV [NLGN2, Q8NFZ4] . Its pKd was 3.6

Entry under test: QSLNRMEYIV [JAG1, P78504] . Its pKd was 5.37

Entry under test: RRISSLESEV [GRIN2C, Q14957] . Its pKd was 3.82
